Target: ghrelin receptor (Homo sapiens)
Assay: IP-One assay
Type: cell-based
Details: normalized to KbFwLL-NH2 (15) (inverse agonists and 13); difference between constitutive activity and maximal effect; mean±SEM of >=2 independent experiments; SEM
Square brackets hold non-standard residues; d marks the D form. Peptide text beside a SMILES is read from it. Trp(3S-Ph) = N[C@H](C(=O)O)[C@@H](c1ccccc1)c1c[nH]c2ccccc12; Trp(βR-Ph) = N[C@H](C(=O)O)[C@H](c1ccccc1)c1c[nH]c2ccccc12
Would you mind telling me the reported E max [Δ%] of each entry?

For the compound CC(C)C[C@H](NC(=O)[C@H](CC(C)C)NC(=O)[C@@H](Cc1c[nH]c2ccccc12)NC(=O)[C@H](Cc1ccccc1)NC(=O)[C@@H](NC(=O)[C@@H](N)CCCCN)[C@H](c1ccccc1)c1c[nH]c2ccccc12)C(N)=O [Peptide 9, K‐Wrf‐FwLL‐NH2] , what E max [Δ%] is on record? 72±2 Δ%

# E max [Δ%] lookup, item CC(C)C[C@H](NC(=O)[C@H](CC(C)C)NC(=O)[C@@H](Cc1c[nH]c2ccccc12)NC(=O)[C@H](Cc1ccccc1)NC(=O)[C@@H](Cc1c[nH]c2ccccc12)NC(=O)[C@@H](N)CCCCN)C(N)=O [Peptide 8, KwFwLL‐NH2, reference compound] 66±3 Δ%

Any idea what its E max [Δ%] is? The compound is CC(C)C[C@H](NC(=O)[C@H](CC(C)C)NC(=O)[C@@H](Cc1c[nH]c2ccccc12)NC(=O)[C@@H](NC(=O)[C@@H](Cc1c[nH]c2ccccc12)NC(=O)[C@@H](N)CCCCN)[C@@H](c1ccccc1)c1c[nH]c2ccccc12)C(N)=O [Peptide 12, Kw‐Wsf‐wLL‐NH2] (H-K[dW][Trp(3S-Ph)][dW]LL-NH2; N-terminus assumed) 77±4 Δ%

Any idea what E max [Δ%] was measured for CC(C)C[C@H](NC(=O)[C@H](CC(C)C)NC(=O)[C@@H](NC(=O)[C@H](Cc1ccccc1)NC(=O)[C@@H](Cc1c[nH]c2ccccc12)NC(=O)[C@@H](N)CCCCN)[C@H](c1ccccc1)c1c[nH]c2ccccc12)C(N)=O [Peptide 13, KwF‐Wrf‐LL‐NH2] ? 39±3 Δ%

Please report the recorded E max [Δ%] for CC(C)C[C@H](NC(=O)[C@H](CC(C)C)NC(=O)[C@@H](Cc1c[nH]c2ccccc12)NC(=O)[C@@H](NC(=O)[C@@H](Cc1c[nH]c2ccccc12)NC(=O)[C@@H](N)CCCCN)[C@H](c1ccccc1)c1c[nH]c2ccccc12)C(N)=O [Peptide 11, Kw‐Wrf‐wLL‐NH2] (H-K[dW][Trp(βR-Ph)][dW]LL-NH2; N-terminus assumed) . 55±4 Δ%

---

Target: ghrelin receptor (Homo sapiens, UniProt Q92847)
Sequence (Q92847 whole entry): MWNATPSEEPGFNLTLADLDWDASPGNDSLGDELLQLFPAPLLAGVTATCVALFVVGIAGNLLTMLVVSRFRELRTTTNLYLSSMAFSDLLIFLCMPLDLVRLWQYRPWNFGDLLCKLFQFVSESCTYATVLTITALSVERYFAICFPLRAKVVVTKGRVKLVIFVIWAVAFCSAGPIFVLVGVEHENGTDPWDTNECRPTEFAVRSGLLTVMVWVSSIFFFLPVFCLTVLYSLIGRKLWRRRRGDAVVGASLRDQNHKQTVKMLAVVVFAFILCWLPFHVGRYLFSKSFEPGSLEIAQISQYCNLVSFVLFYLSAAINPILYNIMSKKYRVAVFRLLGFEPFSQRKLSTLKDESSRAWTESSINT
Assay: IP-One assay
Assay type: cell-based
Settings: normalized to KbFwLL-NH2 (15) (inverse agonists and 13); difference between constitutive activity and maximal effect; mean±SEM of >=2 independent experiments; SEM
Square brackets hold non-standard residues; d marks the D form. Peptide text beside a SMILES is read from it. Trp(βR-Ph) = N[C@H](C(=O)O)[C@H](c1ccccc1)c1c[nH]c2ccccc12; dBta = N[C@H](Cc1csc2ccccc12)C(=O)O
Reported Endpoint: E max [Δ%]

Would you kindly share the measured E max [Δ%] for CC(C)C[C@H](NC(=O)[C@H](CC(C)C)NC(=O)[C@@H](Cc1c[nH]c2ccccc12)NC(=O)[C@@H](NC(=O)[C@@H](Cc1csc2ccccc12)NC(=O)[C@@H](N)CCCCN)[C@H](c1ccccc1)c1c[nH]c2ccccc12)C(N)=O [Peptide 16, Kb‐Wrf‐wLL‐NH2] (H-K[dBta][Trp(βR-Ph)][dW]LL-NH2; N-terminus assumed) ? 56±3 Δ%
